Data provenance is the Human Domainome abundance scans (Beltran et al. 2025).

B1: Homeobox protein cut-like 1, residues 548 to 629; numbered along this chain, P39880 (parent)
chain: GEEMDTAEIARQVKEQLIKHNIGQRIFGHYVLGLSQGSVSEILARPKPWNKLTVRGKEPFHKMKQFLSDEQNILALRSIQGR

- Variants of: B1
- Test Details: abundance fitness (aPCA) (normalised: wild type 0, dead -1); higher = more abundant; growth selection in yeast, the domain comes from the species named
- Condition Label: Homo sapiens
Entries are grouped by abundance fitness into these classes: low end (below -0.5), middle (-0.5 to below -0.2), high end (-0.2 or more)

Use the examples below as a reference point.
Sequence	Assigned Label
GEEMDTAEIARQVKEQLIKHNIGQRIFGHYVLGLHQGSVSEILARPKPWNKLTVRGKEPFHKMKQFLSDEQNILALRSIQGR	middle
GEEMDTAEIARQVKEQLIKHNIGQRIFIHYVLGLSQGSVSEILARPKPWNKLTVRGKEPFHKMKQFLSDEQNILALRSIQGR	middle

Now look at this entry.
Which class does "GEEMDKAEIARQVKEQLIKHNIGQRIFGHYVLGLSQGSVSEILARPKPWNKLTVRGKEPFHKMKQFLSDEQNILALRSIQGR" fall in?
low end
